All figures here come from the NIST ThermoML archive (doi:10.1016/j.jct.2015.07.046).

methodSummary: activity coefficient (dimensionless); of the first substance listed, at infinite dilution; xn = mol fraction of the nth substance listed
measurementParameters: 353.15 K; 101.3 kPa; Liquid; Chromatography; x1 = 0
valueKind: activity coefficient
Lab note: record just the number, no unit beside it.

Field: example entries. Status: answers known.
C1=CCCCC1 [cyclohexene] + COP(=O)([O-])OC.Cn1cc[n+](C)c1: 29.1
C=Cc1ccccc1 [styrene] + COP(=O)([O-])OC.Cn1cc[n+](C)c1: 6.58
c1ccccc1 [benzene] + COP(=O)([O-])OC.Cn1cc[n+](C)c1: 3.57

For Cc1cccc(C)c1 [1,3-dimethylbenzene] + CCn1cc[n+](C)c1.COP(=O)([O-])OC , write its activity coefficient. 10.5

---

methodSummary: activity coefficient (dimensionless); of the first substance listed, at infinite dilution; xn = mol fraction of the nth substance listed
measurementParameters: 333.15 K; 101.3 kPa; Liquid; Chromatography; x1 = 0
// class assignment uses activity coefficient with these ranges: low-valued (below 10), mid-valued (10 to below 100), high-valued (100 or more)

Example entries begin here.
C=Cc1ccccc1 [styrene] + COP(=O)([O-])OC.Cn1cc[n+](C)c1: low-valued
CCCCCC [hexane] + CCn1cc[n+](C)c1.COP(=O)([O-])OC: high-valued
Cc1ccccc1C [1,2-dimethylbenzene] + COP(=O)([O-])OC.Cn1cc[n+](C)c1: mid-valued
CCCCCCCC [octane] + CCn1cc[n+](C)c1.COP(=O)([O-])OC: high-valued

Which category fits this record: CCCCCCC [heptane] + CCn1cc[n+](C)c1.COP(=O)([O-])OC high-valued

Where would Cc1cccc(C)c1 [1,3-dimethylbenzene] + CCn1cc[n+](C)c1.COP(=O)([O-])OC land among the classes by reported activity coefficient? mid-valued

Pick a category. Item: Cc1ccc(C)cc1 [1,4-dimethylbenzene] + COP(=O)([O-])OC.Cn1cc[n+](C)c1 mid-valued

Returns: class label. Input: CCCCC [pentane] + COP(=O)([O-])OC.Cn1cc[n+](C)c1 high-valued

// bin(item) where item = Cc1cccc(C)c1 [1,3-dimethylbenzene] + COP(=O)([O-])OC.Cn1cc[n+](C)c1 mid-valued

---

# activity coefficient listing for each entry below
methodSummary: activity coefficient (dimensionless); of the first substance listed, at infinite dilution; xn = mol fraction of the nth substance listed
measurementParameters: 323.15 K; 101.3 kPa; Liquid; Chromatography; x1 = 0
Answer with a bare number; do not write a unit.

CC(C)CC(C)(C)C [2,2,4-trimethylpentane] + COP(=O)([O-])OC.Cn1cc[n+](C)c1: 301
Cc1ccc(C)cc1 [1,4-dimethylbenzene] + CCn1cc[n+](C)c1.COP(=O)([O-])OC: 11.5
C1=CCCCC1 [cyclohexene] + CCn1cc[n+](C)c1.COP(=O)([O-])OC: 22.4

Give me measured activity coefficient, please, for this molecule: C=Cc1ccccc1 [styrene] + COP(=O)([O-])OC.Cn1cc[n+](C)c1 6.62

Recall and state the measured activity coefficient for CC1CCCCC1 [methylcyclohexane] + CCn1cc[n+](C)c1.COP(=O)([O-])OC . 68.3

Respond only with activity coefficient recorded for c1ccccc1 [benzene] + COP(=O)([O-])OC.Cn1cc[n+](C)c1 3.62

Fill in reported activity coefficient for this entry: CC1CCCCC1 [methylcyclohexane] + COP(=O)([O-])OC.Cn1cc[n+](C)c1 80.8

Recall and state the measured activity coefficient for Cc1ccccc1 [toluene] + CCn1cc[n+](C)c1.COP(=O)([O-])OC . 6.14

Please supply the value of reported activity coefficient for the item Cc1ccccc1C [1,2-dimethylbenzene] + COP(=O)([O-])OC.Cn1cc[n+](C)c1 12.5
